System: 15-hydroxy-prostaglandin-dehydrogenase
Test: 15-Hydroxy-prostaglandin-dehydrogenase substrate test
Format: in vitro ADME
Parameters: key: substrate; O: no substrate of the enzyme
Details: In this test the concentration of the compounds 1.10^-4 mole/lit.
ENDPOINT_NAME: 15-Hydroxy-prostaglandin-dehydrogenase (substrate or no substrate)

CCCCC[C@H](O)/C=C/[C@@H]1[C@@H](C/C=C\CCCC(=O)OC)[C@@H](O)C[C@H]1O [PGF2α methyl ester, reference compound]	s
CCCCC[C@H](O)/C=C/[C@@H]1[C@@H](C/C=C\CCCC(=O)O)[C@@H](O)C[C@H]1O [PGF2α, reference compound]	s
CCCC[C@H](N)C(O)/C=C/[C@@H]1[C@@H](C/C=C\CCCC(=O)O)[C@@H](O)C[C@H]1O (single isomer, unassigned)	O

* * *

System: guinea pig ileum
Assay: Smooth muscle contraction, ileum
Assay type: cell-based
Settings: PGF2α = 1.00
ENDPOINT_NAME: Smooth muscle contraction relative efficiency Ileum
I'd appreciate a reply containing only the number, no unit.

Examples with answers:
CCCCC[C@H](O)/C=C/[C@@H]1[C@@H](C/C=C\CCCC(=O)O)[C@@H](O)C[C@H]1O [PGF2α, reference compound]	1.00
CCCC[C@@H](N)C(O)/C=C/[C@@H]1[C@@H](C/C=C\CCCC(=O)O)[C@@H](O)C[C@H]1O (single isomer, unassigned)	0.02
CCCC[C@H](N)C(O)/C=C/[C@@H]1[C@@H](C/C=C\CCCC(=O)O)[C@@H](O)C[C@H]1O (single isomer, unassigned)	0.11
CCCC[C@H](N)C(O)/C=C/[C@@H]1[C@@H](C/C=C\CCCC(=O)OC)[C@@H](O)C[C@H]1O (single isomer, unassigned)	0.17
CCCCC[C@H](O)/C=C/[C@@H]1[C@@H](C/C=C\CCCC(=O)OC)[C@@H](O)C[C@H]1O [PGF2α methyl ester, reference compound]	0.78

Query string: Recorded Smooth muscle contraction relative efficiency Ileum for CCCC[C@@H](N)C(O)/C=C/[C@@H]1[C@@H](C/C=C\CCCC(=O)OC)[C@@H](O)C[C@H]1O (single isomer, unassigned) with guinea pig ileum, please?
Result string: 0.02

* * *

Tested on: 15-hydroxy-prostaglandin-dehydrogenase
Test: 15-Hydroxy-prostaglandin-dehydrogenase substrate test
Type: in vitro ADME
Set-up: key: substrate; O: no substrate of the enzyme
Conditions: In this test the concentration of the compounds 1.10^-4 mole/lit.
ENDPOINT_NAME: 15-Hydroxy-prostaglandin-dehydrogenase (substrate or no substrate)

CCCC[C@@H](N)C(O)/C=C/[C@@H]1[C@@H](C/C=C\CCCC(=O)O)[C@@H](O)C[C@H]1O (single isomer, unassigned)	O
CCCC[C@H](N)C(O)/C=C/[C@@H]1[C@@H](C/C=C\CCCC(=O)OC)[C@@H](O)C[C@H]1O (single isomer, unassigned)	O
CCCC[C@@H](N)C(O)/C=C/[C@@H]1[C@@H](C/C=C\CCCC(=O)OC)[C@@H](O)C[C@H]1O (single isomer, unassigned)	O
